From: patent US20120165304A1

Target: human 5-HT2C receptor (Homo sapiens, UniProt P28335, I156V/I160V/N158S)
Sequence (P28335 33-458 I156V/N158S/I160V limits assumed): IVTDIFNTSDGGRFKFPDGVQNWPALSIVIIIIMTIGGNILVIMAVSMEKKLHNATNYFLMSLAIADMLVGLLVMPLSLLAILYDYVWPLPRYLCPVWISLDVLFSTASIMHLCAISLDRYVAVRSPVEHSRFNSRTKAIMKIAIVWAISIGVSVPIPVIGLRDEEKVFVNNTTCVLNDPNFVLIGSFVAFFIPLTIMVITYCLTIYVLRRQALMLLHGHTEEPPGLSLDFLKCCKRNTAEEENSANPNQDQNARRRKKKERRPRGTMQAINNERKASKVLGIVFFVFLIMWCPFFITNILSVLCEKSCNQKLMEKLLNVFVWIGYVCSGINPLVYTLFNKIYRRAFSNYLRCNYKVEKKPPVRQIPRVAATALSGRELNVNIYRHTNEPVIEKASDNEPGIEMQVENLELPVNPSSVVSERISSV
Experiment: cell-based
pEC50: −log10 of the molar value.
Classification field: enter satisfied for pEC50 values not below 7, not satisfied for values below it.

- COMPOUND: "O=C(C1CCCC1)N1CCN(C(=O)C2CN(c3c4c(nc5ccnn35)CCNCC4)C2)CC1"
  CLASS NAME: "satisfied"
- COMPOUND: "CC(C)C1(O)CCN(C(=O)C2CN(c3c4c(nc5ccnn35)CCN(C)CC4)C2)CC1"
  CLASS NAME: "not satisfied"
- COMPOUND: "O=C(C1CN(c2c3c(nc4ccnn24)CCNCC3)C1)N1CCCC(C2CCCCC2)C1 (centres unmarked)"
  CLASS NAME: "not satisfied"
- COMPOUND: "CN(C(=O)C1CN(c2c3c(nc4ccnn24)CCNCC3)C1)C1CC1"
  CLASS NAME: "not satisfied"
- COMPOUND: "O=C(C1CN(c2c3c(nc4ccnn24)CCNCC3)C1)N1CCOCC1"
  CLASS NAME: "not satisfied"
- COMPOUND: "CC1CCCCN1C(=O)C1CN(c2c3c(nc4ccnn24)CCNCC3)C1 (centres unmarked)"
  CLASS NAME: "not satisfied"
- COMPOUND: "O=C(C1CN(c2c3c(nc4ccnn24)CCNCC3)C1)N1CCC(c2ccccc2)C1 (centres unmarked)"
  CLASS NAME: "satisfied"
- COMPOUND: "O=C(C1CN(c2c3c(nc4ccnn24)CCNCC3)C1)N1CCC(F)(F)C1"
  CLASS NAME: "satisfied"
- COMPOUND: "O=C(C1CN(c2c3c(nc4ccnn24)CCNCC3)C1)N1CCc2ccc(C(F)(F)F)cc2C1"
  CLASS NAME: "satisfied"
- COMPOUND: "O=C(C1CN(c2c3c(nc4ccnn24)CCNCC3)C1)N1CCCC1"
  CLASS NAME: "not satisfied"

* * *

Molecular target: human 5-HT2C receptor (Homo sapiens, UniProt P28335, I156V/I160V/N158S)
Assay: cell-based
Measured EC50 accompanies every entry in the list below.

- COMPOUND: "OC1CN(c2c3c(nc4ccnn24)CCNCC3)C1 [Example 1.2]"
  EC50: "127 nM"
- COMPOUND: "O=C(C1CN(c2c3c(nc4ccnn24)CCNCC3)C1)N1CCC(Cc2ccc(Cl)cc2)C1 (centres unmarked) [Example 31.120]"
  EC50: "103 nM"
- COMPOUND: "CCOc1ccc(OC2CN(c3c4c(nc5ccnn35)CCNCC4)C2)cc1 [Example 35.53]"
  EC50: "324 nM"
- COMPOUND: "CN1CCc2nc3ccnn3c(N3CC(C(=O)N4CCCNCC4)C3)c2CC1 [Example 36.59]"
  EC50: "173 nM"
- COMPOUND: "CN(C)CCN(C)C(=O)C1CN(c2c3c(nc4ccnn24)CCN(C)CC3)C1 [Example 36.2]"
  EC50: "563 nM"
- COMPOUND: "FC(F)(F)c1cccc(OC2CN(c3c4c(nc5ccnn35)CCNCC4)C2)n1 [Example 20.10]"
  EC50: "181 nM"
- COMPOUND: "CC1CCN(C(=O)C2CN(c3c4c(nc5ccnn35)CCNCC4)C2)CC1 [Example 31.228]"
  EC50: "42 nM"
- COMPOUND: "O=C(C1CN(c2c3c(nc4ccnn24)CCNCC3)C1)N1CCCC(F)(F)CC1 [Example 40]"
  EC50: "6 nM"
- COMPOUND: "Cc1cnn2c(N3CC(C(=O)N(C)Cc4ccc(C#N)cc4)C3)c3c(nc12)CCNCC3 [Example 31.250]"
  EC50: "9 nM"
- COMPOUND: "C#CCCN(CC(C)C)C(=O)C1CN(c2c3c(nc4ccnn24)CCNCC3)C1 [Example 31.106]"
  EC50: "184 nM"
- COMPOUND: "c1ccc2sc(C3CN(c4c5c(nc6ccnn46)CCNCC5)C3)nc2c1 [Example 12]"
  EC50: "253 nM"
- COMPOUND: "C=CCC1CN(C(=O)C2CN(c3c4c(nc5ccnn35)CCNCC4)C2)Cc2ccccc21 (centres unmarked) [Example 31.88]"
  EC50: "71 nM"
- COMPOUND: "O=C(C1CN(c2c3c(nc4ccnn24)CCNCC3)C1)N1CCC2(CC2)C1 [Example 31.14]"
  EC50: "87 nM"
- COMPOUND: "Cc1cnn2c(N3CC(C(=O)N4CCC5(CCOC5)CC4)C3)c3c(nc12)CCNCC3 [Example 31.240]"
  EC50: "29 nM"
- COMPOUND: "CN(Cc1ccc(C#N)cc1)C(=O)C1CN(c2c3c(nc4c(Br)cnn24)CCNCC3)C1 [Example 31.139]"
  EC50: "16 nM"
- COMPOUND: "C#CCCNC(=O)C1CN(c2c3c(nc4ccnn24)CCNCC3)C1 [Example 37.48]"
  EC50: "141 nM"
- COMPOUND: "CNCCN(C)C(=O)C1CN(c2c3c(nc4ccnn24)CCNCC3)C1 [Example 37.20]"
  EC50: "26 nM"

* * *

Biological target: human 5-HT2C receptor (Homo sapiens, UniProt P28335, I156V/I160V/N158S)
Experiment: cell-based
pEC50: −log10 of the molar value.
Reported pEC50 values for the following molecules.

- SMILES CODE: "O=C(C1CN(c2c3c(nc4ccnn24)CCNCC3)C1)N1CCC(c2ccc(F)cc2)CC1"
  TESTED TARGET: "human 5-HT2C receptor (Homo sapiens, UniProt P28335, I156V/I160V/N158S)"
  pEC50: 7.52
- SMILES CODE: "Fc1ccc(OC2CN(c3c4c(nc5ccnn35)CCNCC4)C2)cc1F"
  TESTED TARGET: "human 5-HT2C receptor (Homo sapiens, UniProt P28335, I156V/I160V/N158S)"
  pEC50: 6.94
- SMILES CODE: "O=C(NCCCC(F)(F)F)C1CN(c2c3c(nc4ccnn24)CCNCC3)C1"
  TESTED TARGET: "human 5-HT2C receptor (Homo sapiens, UniProt P28335, I156V/I160V/N158S)"
  pEC50: 7.38
- SMILES CODE: "c1cncc(Cn2c(C3CN(c4c5c(nc6ccnn46)CCNCC5)C3)nc3ccccc32)c1"
  TESTED TARGET: "human 5-HT2C receptor (Homo sapiens, UniProt P28335, I156V/I160V/N158S)"
  pEC50: 7.34

* * *

Recorded EC50, one value per entry.
Target: human 5-HT2C receptor (Homo sapiens, UniProt P28335, I156V/I160V/N158S)
Test: cell-based

- COMPOUND: "COc1cccc(OC2CN(c3c4c(nc5ccnn35)CCNCC4)C2)c1Cl [Example 35.33]"
  EC50 (nM): 90
- COMPOUND: "CCC1CCC(C)N(C(=O)C2CN(c3c4c(nc5ccnn35)CCNCC4)C2)C1 (stereo not drawn) [Example 31.184]"
  EC50 (nM): 287
- COMPOUND: "CCN1CCN(C(=O)C2CN(c3c4c(nc5ccnn35)CCNCC4)C2)CC1=O [Example 37.65]"
  EC50 (nM): 5
- COMPOUND: "CN(Cc1ccc(OC(F)F)cc1)C(=O)C1CN(c2c3c(nc4ccnn24)CCNCC3)C1 [Example 31.161]"
  EC50 (nM): 15
- COMPOUND: "COc1cc(C)cc(OCC2CN(c3c4c(nc5ccnn35)CCNCC4)C2)c1 [Example 15.22]"
  EC50 (nM): 141
- COMPOUND: "c1ccc(OCC2CN(c3c4c(nc5ccnn35)CCNCC4)C2)nc1 [Example 15.28]"
  EC50 (nM): 24
- COMPOUND: "CC1(C)CCN(C(=O)C2CN(c3c4c(nc5ccnn35)CCNCC4)C2)CC1 [Example 31.47]"
  EC50 (nM): 21
- COMPOUND: "c1cc2nc3c(c(N4CCC4)n2n1)CCNCC3 [Example 7.4]"
  EC50 (nM): 5
- COMPOUND: "O=C(C1CCCN(c2c3c(nc4ccnn24)CCNCC3)C1)N1CCCCC1 (stereo not drawn) [Example 1.61]"
  EC50 (nM): 4710
- COMPOUND: "CN1CCc2nc3ccnn3c(N3CC(C(=O)N4CCC(N(C)C)CC4)C3)c2CC1 [Example 36.5]"
  EC50 (nM): 51
- COMPOUND: "O=C(NCCC(F)(F)F)C1CN(c2c3c(nc4ccnn24)CCNCC3)C1 [Example 37.63]"
  EC50 (nM): 84
- COMPOUND: "c1ccc(OC2CN(c3c4c(nc5ccnn35)CCNCC4)C2)nc1 [Example 20.6]"
  EC50 (nM): 38
- COMPOUND: "CC1(C(=O)N2CCC3(CC2)OCc2ccccc23)CN(c2c3c(nc4ccnn24)CCNCC3)C1 [Example 32.5]"
  EC50 (nM): 6550
- COMPOUND: "CN1CCc2nc3ccnn3c(N3CC(C(=O)NCC4CCN(C)CC4)C3)c2CC1 [Example 36.3]"
  EC50 (nM): 108
- COMPOUND: "CN1CCN(C(=O)C2CN(c3c4c(nc5ccnn35)CCNCC4)C2)CC1 [Example 37.35]"
  EC50 (nM): 4
- COMPOUND: "Cc1cccc2c1N(C(=O)C1CN(c3c4c(nc5ccnn35)CCNCC4)C1)CC2 [Example 31.174]"
  EC50 (nM): 116
- COMPOUND: "CC(C)CN1CCN(C(=O)C2CN(c3c4c(nc5ccnn35)CCN(C)CC4)C2)CC1 [Example 36.17]"
  EC50 (nM): 88
- COMPOUND: "CC(C)c1ccc(OC2CN(c3c4c(nc5ccnn35)CCNCC4)C2)cc1 [Example 35.44]"
  EC50 (nM): 256
